PROTOCOL DESCRIPTION: Dog plasma PK, IV and oral
Format: in vivo
APPLIED CONDITIONS: male, Beagle, dog, plasma, iv, 2.1 mg/kg, plasma, IV 2.1 mg kg-1, Dog 1; read-out: Vss
MEASURED QUANTITY: Vd (L/kg)
Dear colleague, please return just the value in L/kg, with no unit written.

Lookup result for Cc1nc(Nc2ncc(N3CCN(C)[C@H](C)C3)c(Nc3cc(C)n(C)n3)n2)cc(C2CC2)c1F [compound 12] ; measured Vd: 24.9

====

PROTOCOL DESCRIPTION: Dog plasma PK, IV and oral
Format: in vivo
APPLIED CONDITIONS: male, Beagle, dog, plasma, po, 5.1 mg/kg, Oral 5.1 mg kg-1, Dog 1
MEASURED QUANTITY: bioavailability (%)
Hi! Could you send only the number? It should be in %, unit omitted.

Noted for Cc1nc(Nc2ncc(N3CCN(C)[C@H](C)C3)c(Nc3cc(C)n(C)n3)n2)cc(C2CC2)c1F [compound 12] : its bioavailability reads 88.1

====

PROTOCOL DESCRIPTION: Dog plasma PK, IV and oral
Format: in vivo
APPLIED CONDITIONS: male, Beagle, dog, plasma, iv, 2.1 mg/kg, IV 2.1 mg kg-1, Dog 2; read-out: t½ (converted)
MEASURED QUANTITY: half-life (h)
Give the number; h is assumed, so skip it.

Documented half-life of Cc1nc(Nc2ncc(N3CCN(C)[C@H](C)C3)c(Nc3cc(C)n(C)n3)n2)cc(C2CC2)c1F : 11

====

Tested on: Pf SB1
PROTOCOL DESCRIPTION: microbe, parasite or virus in culture
Type: cell-based
APPLIED CONDITIONS: Plasmodium falciparum
Attribute: pIC50
# log scale: pIC50 equals minus log10 of the concentration in mol/L

Known results for compounds:
CCc1cc(Nc2ncc(N3CCN[C@H](C)C3)c(Nc3cc(C)n(C)n3)n2)nc(C)c1F.Cl.Cl; 7.46
CCN(CC)CCCC(C)Nc1ccnc2cc(Cl)ccc12 (stereo not drawn); 7.93

Sure, the documented pIC50 for Cc1nc(Nc2ncc(N3CCNC(C)C3)c(Nc3cc(C)n(C)n3)n2)cc(C2CC2)c1F.Cl.Cl (stereo not drawn) is 7.59

The measured pIC50 associated with CCc1nc(N)nc(N)c1-c1ccc(Cl)cc1 reads 7.97

The compound listed as C[C@@H]1CC[C@H]2[C@@H](C)C(=O)O[C@@H]3O[C@@]4(C)CC[C@@H]1[C@]32OO4 has a reported pIC50 of 7.78

====

PROTOCOL DESCRIPTION: Rat blood PK, IV and oral
Assay type: in vivo
APPLIED CONDITIONS: Wistar, rat, whole blood, iv, 2 mg/kg, IV 2 mg kg-1, Mean; read-out: CL
MEASURED QUANTITY: clearance (mL/min/kg)
The reply should be a number in mL/min/kg, with the unit left off.

Short answer for Cc1nc(Nc2ncc(N3CCN(C)[C@H](C)C3)c(Nc3cc(C)n(C)n3)n2)cc(C2CC2)c1F : clearance was 9.2

====

Test system: Dd2
PROTOCOL DESCRIPTION: SYBR green growth assay, Dd2 (parental)
Type: cell-based, P. falciparum
APPLIED CONDITIONS: Plasmodium falciparum, DD2, Dd2 parental; mean ± SD, Supplementary Table 13
pIC50: −log10 of the molar value.
Binary call on pIC50: class 1 from 8 upward, class 0 beneath that.

Consider the following illustrative entries.
OC(c1cc(C(F)(F)F)nc2c(C(F)(F)F)cccc12)C1CCCCN1 (centres unmarked) [Mefloquine]; class 0
CNc1nc(Nc2ccc(OCC(F)(F)F)c(C)n2)ncc1N1CCN[C@H](C)C1 [compound 6]; class 0

Below: the item to evaluate.
q: Determine whether measured pIC50 meets or exceeds 8 for C[C@H]1[C@H](OC(=O)CCC(=O)O)O[C@@H]2O[C@@]3(C)CC[C@H]4[C@H](C)CC[C@@H]1[C@@]24OO3 [Artesunate]
a: class 1

====

PROTOCOL DESCRIPTION: Rat blood PK, IV and oral
Format: in vivo
APPLIED CONDITIONS: Wistar, rat, whole blood, iv, 2 mg/kg, IV 2 mg kg-1, Rat 1; read-out: Vss
MEASURED QUANTITY: Vd (L/kg)
// return numeric value only (unit: L/kg, not printed)

Sure, the documented Vd for Cc1nc(Nc2ncc(N3CCN(C)[C@H](C)C3)c(Nc3cc(C)n(C)n3)n2)cc(C2CC2)c1F [compound 12] is 9.3

====

PROTOCOL DESCRIPTION: Dog plasma PK, IV and oral
Type: in vivo
APPLIED CONDITIONS: male, Beagle, dog, plasma, iv, 2.1 mg/kg, IV 2.1 mg kg-1, Dog 2
MEASURED QUANTITY: AUC(0-t) (µM·h)
The reply should contain only the number, in µM·h.

// field: AUC(0-t); key: Cc1nc(Nc2ncc(N3CCN(C)[C@H](C)C3)c(Nc3cc(C)n(C)n3)n2)cc(C2CC2)c1F ; value = 2.68
